The values you see were collected from patent US20070004660A1.

biological target: wild-type FLT3 receptor (Homo sapiens, UniProt P36888); test: Cell-based FLT3 receptor ELISA (FLT ligand-induced phosphorylation in Baf3 FLT3 cells); details: 100 ng/mL Flt ligand, uncertainty ±20%
Sequence (P36888 27-993): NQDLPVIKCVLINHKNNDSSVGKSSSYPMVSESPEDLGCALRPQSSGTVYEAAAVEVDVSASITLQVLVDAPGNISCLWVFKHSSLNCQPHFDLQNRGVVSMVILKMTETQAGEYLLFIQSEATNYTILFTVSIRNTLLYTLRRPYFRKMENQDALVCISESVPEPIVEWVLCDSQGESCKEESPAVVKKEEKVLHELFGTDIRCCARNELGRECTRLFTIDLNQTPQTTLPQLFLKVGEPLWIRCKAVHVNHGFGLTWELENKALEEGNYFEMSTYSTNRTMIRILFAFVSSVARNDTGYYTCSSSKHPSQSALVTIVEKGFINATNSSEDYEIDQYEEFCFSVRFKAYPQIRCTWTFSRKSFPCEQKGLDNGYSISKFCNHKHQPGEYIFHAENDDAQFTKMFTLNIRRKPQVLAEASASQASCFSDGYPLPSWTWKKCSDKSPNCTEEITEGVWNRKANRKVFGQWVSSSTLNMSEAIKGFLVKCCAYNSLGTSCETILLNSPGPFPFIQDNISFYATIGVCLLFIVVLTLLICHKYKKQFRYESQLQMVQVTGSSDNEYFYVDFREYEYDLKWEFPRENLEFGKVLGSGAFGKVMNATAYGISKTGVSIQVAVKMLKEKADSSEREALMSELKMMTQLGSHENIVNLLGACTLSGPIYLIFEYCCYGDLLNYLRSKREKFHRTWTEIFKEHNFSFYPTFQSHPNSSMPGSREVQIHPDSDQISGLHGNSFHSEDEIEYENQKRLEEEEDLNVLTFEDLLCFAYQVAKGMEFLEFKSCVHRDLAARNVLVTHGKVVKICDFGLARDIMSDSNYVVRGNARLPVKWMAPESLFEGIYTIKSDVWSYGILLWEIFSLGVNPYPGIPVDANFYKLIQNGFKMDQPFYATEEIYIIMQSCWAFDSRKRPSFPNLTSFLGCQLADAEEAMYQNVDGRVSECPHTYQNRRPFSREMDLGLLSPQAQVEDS
pIC50: −log10 of the molar value.
measured.property: pIC50

Before answering, review these 5 worked examples.
| molecule | pIC50 |
| --- | --- |
| O=C(Nc1ccc(N2CCCC2)cc1)N1CCC(c2ncnc3cc(OCCN4CCC[C@H]4CO)ccc23)CC1 [Example 152] | 7.38 |
| COc1cc2ncnc(C3CCN(C(=O)Nc4ccc(C5=CCNCC5)cc4)CC3)c2cc1OC [Example 62] | 6.01 |
| COC[C@H]1CCCN1c1ccc2c(C3CCN(C(=O)Nc4ccc(N5CCOCC5)cc4)CC3)ncnc2c1 [Example 130] | 6.23 |
| CC(C)Oc1ccc(NC(=O)N2CCC(c3ncnc4cc(OCCCN5CCN(C)CC5)ccc34)CC2)cc1 [Example 39] | 8.10 |
| COc1cc2ncnc(C3CCN(C(=O)Nc4ccc(-c5ccc(Cl)nc5)cc4)CC3)c2cc1OC [Example 60] | 7.34 |

1: CC(C)Oc1ccc(NC(=O)N2CCC(c3ncnc4cc(OCCCN5CCOCC5)ccc34)CC2)cc1 [Example 38]
2: O=C(Nc1ccc(N2CCCC2)cc1)N1CCC(c2ncnc3cc(N4CCOCC4)ccc23)CC1 [Compound 181]
Ask: Between these two entries, 1 and 2 , state which has the higher pIC50. In your reply, give the label of the chosen option.
Reply: 2

a: CC(=O)N1CCN(CCCOc2ccc3c(C4CCN(C(=O)Nc5ccc(N6CCOCC6)cc5)CC4)ncnc3c2)CC1 [Example 117]
b: O=C(Nc1ccc(N2CCOCC2)cc1)N1CCC(c2ncnc3cc(OCCCN4CCOCC4)ccc23)CC1 [Example 133]
c: COc1cc2c(C3CCN(C(=O)Nc4ccc(N5CCCC5)cc4)CC3)ncnc2cc1N1CCOCC1 [Compound 211]
d: CC(C)Oc1ccc(NC(=O)N2CCC(c3ncnc4ccc(C#CCN5CCOCC5)cc34)CC2)cc1 [Example 15]
Ask: List these items ordered by pIC50, big to small. To answer, arrange all of the labels according to the requested order.
Reply: c, b, d, a

a: O=C(Nc1ccc(N2CCOCC2)cc1)N1CCC(c2ncnc3cc(N4CC[C@H](O)C4)ccc23)CC1 [Example 128]
b: CN(C)C(=O)N1CCN(c2ccc3c(C4CCN(C(=O)Nc5ccc(N6CCOCC6)cc5)CC4)ncnc3c2)CC1 [Example 143]
Ask: Problem: Given the entries a and b , determine which has the lower reported pIC50. In your reply, give the label of the chosen option.
Reply: a
(a: 7.24, b: 9.00)
